Assay summary: Inhibition of the release of tumor necrosis factor alpha from peripheral blood mononuclear cells
Format: functional
Stated conditions: Homo sapiens
pIC50: −log10 of the molar value.
pIC50 by entry:
Reported property: pIC50

* Fc1ccc(-c2[nH]c(/C=C/c3ccccc3)nc2-c2ccncc2)cc1 | 5.19
* CSc1cc(CSc2nc(-c3ccncc3)c(-c3ccc(F)cc3)[nH]2)ccc1O | 5.96
* C[S+]([O-])c1cc(Cl)cc(CSc2nc(-c3ccc(F)cc3)c(-c3ccncc3)[nH]2)c1O (centres undefined) | 4.55
* CSc1ccc(CSc2nc(-c3ccc(Cl)cc3)c(-c3ccncc3)[nH]2)cc1 | 4.85
* CSc1cccc(CSc2nc(-c3ccncc3)c(-c3ccc(F)cc3)[nH]2)c1 | 4.92
* CS(=O)(=O)c1ccc(CSc2nc(-c3ccccc3)c(-c3ccncc3)[nH]2)cc1 | 5.10
* CS(=O)(=O)c1ccc(CSc2nc(-c3ccc(Cl)cc3)c(-c3ccncc3)[nH]2)cc1 | 5.21
* C[S+]([O-])c1ccc(CSc2nc(-c3ccc(Cl)cc3)c(-c3ccncc3)[nH]2)cc1 (centres undefined) | 5.51
* CS(=O)(=O)c1ccc(CSc2nc(-c3ccc(Br)cc3)c(-c3ccncc3)[nH]2)cc1 | 5.14

###

System tested: Mitogen-activated protein kinase 14 (Homo sapiens, UniProt Q16539)
Sequence (Q16539 whole entry): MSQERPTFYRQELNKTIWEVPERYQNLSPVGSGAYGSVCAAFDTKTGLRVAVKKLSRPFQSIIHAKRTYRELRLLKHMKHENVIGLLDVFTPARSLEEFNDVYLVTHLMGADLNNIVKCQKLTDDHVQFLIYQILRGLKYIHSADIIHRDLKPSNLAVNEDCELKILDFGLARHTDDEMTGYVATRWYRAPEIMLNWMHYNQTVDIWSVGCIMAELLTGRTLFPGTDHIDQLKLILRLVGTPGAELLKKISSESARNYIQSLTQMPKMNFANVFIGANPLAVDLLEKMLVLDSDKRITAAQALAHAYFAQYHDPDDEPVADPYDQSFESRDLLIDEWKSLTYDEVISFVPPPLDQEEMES
Assay summary: Inhibition of Mitogen-activated protein kinase p38 (P38 MAPK)
pIC50: −log10 of the molar value.
Reported property: pIC50

* C[S+]([O-])c1ccc(CSc2nc(-c3ccc(F)cc3)c(-c3ccncc3)[nH]2)cc1 (stereo not given) | 5.40
* Fc1ccc(-c2[nH]c(CCc3ccccc3)nc2-c2ccncc2)cc1 | 6.16
* C[S+]([O-])c1ccc(CSc2nc(-c3ccccc3)c(-c3ccncc3)[nH]2)cc1 (stereo not given) | 4.92
* C[S+]([O-])c1ccc(CCSc2nc(-c3ccncc3)c(-c3ccc(F)cc3)[nH]2)cc1 (stereo not given) | 5.82
* Fc1ccc(-c2[nH]c(SCc3ccccc3)nc2-c2ccncc2)cc1 | 4.46

###

Assay summary: Inhibition of the release of tumor necrosis factor alpha from peripheral blood mononuclear cells
Type: functional
Stated conditions: Homo sapiens
Reported property: IC50 (µM)

• C[S+]([O-])c1ccc(CCCSc2nc(-c3ccc(F)cc3)c(-c3ccncc3)[nH]2)cc1 (stereo not given) = 3.6
• N#CCSc1nc(-c2ccncc2)c(-c2ccc(F)cc2)[nH]1 = 2.3
• C[S+]([O-])c1cccc(CSc2nc(-c3ccncc3)c(-c3ccc(F)cc3)[nH]2)c1 (stereo not given) = 23.5
• C[S+]([O-])c1ccc(CSc2nc(-c3ccccc3)c(-c3ccncc3)[nH]2)cc1 (stereo not given) = 4.3

###

System tested: Mitogen-activated protein kinase 14 (Homo sapiens)
Assay summary: Inhibition of Mitogen-activated protein kinase p38 (P38 MAPK)
pIC50: −log10 of the molar value.
Reported property: pIC50

- C[S+]([O-])c1ccc(CSc2nc(-c3ccc(Cl)cc3)c(-c3ccncc3)[nH]2)cc1 (centres undefined): 5.85
- C[S+]([O-])c1cc(CSc2nc(-c3ccncc3)c(-c3ccc(F)cc3)[nH]2)ccc1O (centres undefined): 5.47
- C[S+]([O-])c1ccc(CSc2nc(-c3ccc(Br)cc3)c(-c3ccncc3)[nH]2)cc1 (centres undefined): 5.42
- CSc1cc(CSc2nc(-c3ccncc3)c(-c3ccc(F)cc3)[nH]2)ccc1O: 5.42
- C[S+]([O-])c1ccc(CCCSc2nc(-c3ccc(F)cc3)c(-c3ccncc3)[nH]2)cc1 (centres undefined): 6.12
- CSc1cccc(CSc2nc(-c3ccncc3)c(-c3ccc(F)cc3)[nH]2)c1: 5.64
- Oc1ccc(CSc2nc(-c3ccncc3)c(-c3ccc(F)cc3)[nH]2)cc1: 5.24
- C[S+]([O-])c1cccc(CSc2nc(-c3ccncc3)c(-c3ccc(F)cc3)[nH]2)c1 (centres undefined): 5.68
- CSc1nc(-c2ccncc2)c(-c2ccc(F)cc2)[nH]1: 6.20

###

Assay summary: Inhibition of the release of tumor necrosis factor alpha from peripheral blood mononuclear cells
Type: functional
Stated conditions: Homo sapiens
pIC50: −log10 of the molar value.
Reported property: pIC50

• CSc1ccc(CSc2nc(-c3ccc(F)cc3)c(-c3ccncc3)[nH]2)cc1 = 5.31
• Fc1ccc(-c2[nH]c(SCc3ccccc3)nc2-c2ccncc2)cc1 = 5.46
• Fc1ccc(-c2[nH]c(SCCc3ccccc3)nc2-c2ccncc2)cc1 = 4.63
• CS(=O)(=O)c1ccc(CSc2nc(-c3ccc(F)cc3)c(-c3ccncc3)[nH]2)cc1 = 5.60
• CSc1ccccc1CSc1nc(-c2ccc(F)cc2)c(-c2ccncc2)[nH]1 = 4.74
• CSc1cc(Cl)cc(CSc2nc(-c3ccc(F)cc3)c(-c3ccncc3)[nH]2)c1O = 4.88
• CSc1ccc(CSc2nc(-c3ccccc3)c(-c3ccncc3)[nH]2)cc1 = 4.77
• C[S+]([O-])c1ccc(O)c(CSc2nc(-c3ccc(F)cc3)c(-c3ccncc3)[nH]2)c1 (stereo not drawn) = 5.24
• Fc1ccc(-c2[nH]c(SCCCc3ccccc3)nc2-c2ccncc2)cc1 = 4.80
• C[S+]([O-])c1cc(CSc2nc(-c3ccncc3)c(-c3ccc(F)cc3)[nH]2)ccc1O (stereo not drawn) = 5.30
• CSc1nc(-c2ccncc2)c(-c2ccc(F)cc2)[nH]1 = 6.05
• Fc1ccc(-c2[nH]c(SCC3CCCCC3)nc2-c2ccncc2)cc1 = 4.47
• CSc1ccc(CSc2nc(-c3ccc(Br)cc3)c(-c3ccncc3)[nH]2)cc1 = 4.89

###

IC50 by entry:
Assay summary: Inhibition of the release of tumor necrosis factor alpha from peripheral blood mononuclear cells
Type: functional
Stated conditions: Homo sapiens
Reported property: IC50

• Oc1cccc(CSc2nc(-c3ccc(F)cc3)c(-c3ccncc3)[nH]2)c1 = 5.4 µM
• Fc1ccc(-c2[nH]c(CCc3ccccc3)nc2-c2ccncc2)cc1 = 5.4 µM
• Fc1ccc(-c2[nH]c(SCc3cccc4ccccc34)nc2-c2ccncc2)cc1 = 8.8 µM
• C[S+]([O-])c1ccc(CCSc2nc(-c3ccncc3)c(-c3ccc(F)cc3)[nH]2)cc1 (stereo not given) = 7.3 µM
• C[S+]([O-])c1ccc(CSc2nc(-c3ccc(F)cc3)c(-c3ccncc3)[nH]2)cc1 (stereo not given) = 1.1 µM
• CSc1ccc(O)c(CSc2nc(-c3ccc(F)cc3)c(-c3ccncc3)[nH]2)c1 = 5.1 µM
• Oc1ccc(CSc2nc(-c3ccncc3)c(-c3ccc(F)cc3)[nH]2)cc1 = 6.8 µM
• C[S+]([O-])c1ccccc1CSc1nc(-c2ccc(F)cc2)c(-c2ccncc2)[nH]1 (stereo not given) = 15 µM
• Oc1ccccc1CSc1nc(-c2ccc(F)cc2)c(-c2ccncc2)[nH]1 = 24.8 µM
• C[S+]([O-])c1ccc(CSc2nc(-c3ccc(Br)cc3)c(-c3ccncc3)[nH]2)cc1 (stereo not given) = 7.8 µM
